Measured values drawn from ChEMBL document CHEMBL4483862 for this set.

tested on: Plasmodium berghei; experiment: Luciferase/luciferin-expressing antifolate-resistant parasites were used to infect a culture of HepG2 cells that were pre-incubated with compounds. Infected hepatocytes emit light due to the luciferase reaction. Assay results are presented as the percent inhibition of light emission compared to control. […]; assay type: functional; settings: sporozoite, FFLUC_HILL_SLOPE 11.4, FFLUC_R_SQUARED 0.309, HEPG2TOX_HILL_SLOPE 1.14, HEPG2TOX_R_SQUARED 0.957, PBLUC_HILL_SLOPE 2.81, PBLUC_R_SQUARED 0.544, read-out: LUCIFERASE INFECTION ASSAY - IC50
pIC50: −log10 of the molar value.
Measured parameter: pIC50

                                     smiles  quantitative_readout
0  O=C(Nc1ncc(Cc2cccc(C(F)(F)F)c2)s1)c1ccc(-n2ccnc2)nc1                  5.47
